Reference for the values: ChEMBL document CHEMBL4732197

Assay name: physchem
Reported conditions: water, pH 7.4
Description: Solubility in water at pH 7.4 at 0.1 to 10 mg
Readout type: solubility (µg/mL)
Express it in µg/mL; write the number only.

Q: // query solubility value for entry `Cc1cc(/C=C/C#N)cc(C)c1Oc1nc(Nc2ccc(CN3CCN(S(N)(=O)=O)CC3)cc2)nc2ccsc12`
Ans: 39.5

Q: // query solubility value for entry `Cc1cc(/C=C/C#N)cc(C)c1Oc1nc(Nc2ccc(CN3CCN(S(N)(=O)=O)CC3)cc2)nc2sccc12`
Ans: 38.9

---

Assay name: Selectivity index, ratio of CC50 for human MT4 cells to EC50 for antiviral activity against HIV IIIB
Format: toxicity
Reported conditions: read-out: Ratio CC50/EC50
Can you tell me selectivity ratio for the items I'm about to list?

Q: // query selectivity ratio value for entry Cc1cc(/C=C/C#N)cc(C)c1Oc1nc(Nc2ccc(N3CCCC(NS(N)(=O)=O)C3)cc2)nc2sccc12 (configuration not stated)
Ans: > 1730

Q: // query selectivity ratio value for entry `Cc1cc(/C=C/C#N)cc(C)c1Oc1nc(Nc2ccc(N3CCN(S(N)(=O)=O)CC3)cc2)nc2ccsc12`
Ans: > 8310

Q: // query selectivity ratio value for entry `Cc1cc(/C=C/C#N)cc(C)c1Oc1nc(Nc2ccc(N3CCN(S(C)(=O)=O)CC3)cc2)nc2sccc12`
Ans: > 1300

Q: // query selectivity ratio value for entry `Cc1cc(/C=C/C#N)cc(C)c1Oc1nc(Nc2ccc(CN3CCN(S(N)(=O)=O)CC3)cc2)nc2sccc12`
Ans: > 26900

Q: // query selectivity ratio value for entry `Cc1cc(/C=C/C#N)cc(C)c1Oc1nc(Nc2ccc(N3CCN(S(N)(=O)=O)CC3)cc2)nc2sccc12`
Ans: > 7790

Q: // query selectivity ratio value for entry Cc1cc(/C=C/C#N)cc(C)c1Oc1nc(Nc2ccc(N3CCCC(NS(N)(=O)=O)C3)cc2)nc2ccsc12 (configuration not stated)
Ans: > 3630

Q: // query selectivity ratio value for entry Cc1cc(/C=C/C#N)cc(C)c1Oc1nc(Nc2ccc(N3CCCC(NS(C)(=O)=O)C3)cc2)nc2ccsc12 (configuration not stated)
Ans: > 434
